Assay Target: HLA-DR DRB1*0701 (human)
Protocol Summary: radioligand inhibition, purified HLA-DR
Reported Endpoint: IC50 (µM)
Write down the numeric answer in µM and omit the unit.

Requested read-out: IC50. Entry: GTDMKLRLPASPETH [Peptide 9019.0027, Her2/neu.28]
6.81
